Target: Cannabinoid receptor 1 (Rattus norvegicus) (UniProt P20272)
Sequence (P20272 whole entry): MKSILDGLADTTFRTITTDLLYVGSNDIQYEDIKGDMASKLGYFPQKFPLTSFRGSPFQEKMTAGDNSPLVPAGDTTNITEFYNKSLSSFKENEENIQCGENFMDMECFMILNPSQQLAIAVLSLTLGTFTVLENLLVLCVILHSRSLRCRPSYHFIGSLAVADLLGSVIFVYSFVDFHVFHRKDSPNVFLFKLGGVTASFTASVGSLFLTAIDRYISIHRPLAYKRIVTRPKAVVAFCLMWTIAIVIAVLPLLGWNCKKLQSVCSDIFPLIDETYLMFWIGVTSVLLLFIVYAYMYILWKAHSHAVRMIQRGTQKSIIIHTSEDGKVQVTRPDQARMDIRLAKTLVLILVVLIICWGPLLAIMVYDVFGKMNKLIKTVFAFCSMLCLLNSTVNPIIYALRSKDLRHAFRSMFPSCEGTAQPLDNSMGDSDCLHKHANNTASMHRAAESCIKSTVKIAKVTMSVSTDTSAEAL
Experiment: […] activity at HU210-induced CB1 receptor in rat cerebellar membrane at 1 uM
Type: functional, cell membranes
Settings: Cerebellum
// values below are reported Activity
attribute-measured: Activity

[[record]]
compound = "CCCCCOc1c(OC)ccc2cc(C(=O)NCCc3ccc(Cl)cc3)c(=O)[nH]c12"
subject_of_test = "Cannabinoid receptor 1 (Rattus norvegicus) (UniProt P20272)"
reported_measurement = "95%"

[[record]]
compound = "CCCCCOc1c(OC)ccc2cc(C(=O)NCc3ccc4c(c3)OCO4)c(=O)[nH]c12"
subject_of_test = "Cannabinoid receptor 1 (Rattus norvegicus) (UniProt P20272)"
reported_measurement = "94%"

[[record]]
compound = "CCCCCOc1c(OC)ccc2cc(C(=O)NCc3ccccc3)c(O)nc12"
subject_of_test = "Cannabinoid receptor 1 (Rattus norvegicus) (UniProt P20272)"
reported_measurement = "94%"

[[record]]
compound = "CCCCCOc1c(OC)ccc2cc(C(=O)Nc3ccccc3N)c(O)nc12"
subject_of_test = "Cannabinoid receptor 1 (Rattus norvegicus) (UniProt P20272)"
reported_measurement = "87%"

[[record]]
compound = "CCCCCOc1c(OC)ccc2cc(C(=O)NCCc3ccc([N+](=O)[O-])cc3)c(O)nc12"
subject_of_test = "Cannabinoid receptor 1 (Rattus norvegicus) (UniProt P20272)"
reported_measurement = "87%"

[[record]]
compound = "Cc1ccc(Cn2nc(C(=O)NC3C4(C)CCC(C4)C3(C)C)cc2-c2ccc(Cl)c(C)c2)cc1 (centres undefined)"
subject_of_test = "Cannabinoid receptor 1 (Rattus norvegicus) (UniProt P20272)"
reported_measurement = "77%"

[[record]]
compound = "CCCCCOc1c(OC)ccc2cc(C(=O)NCCc3ccc(O)c(O)c3)c(O)nc12"
subject_of_test = "Cannabinoid receptor 1 (Rattus norvegicus) (UniProt P20272)"
reported_measurement = "93%"

[[record]]
compound = "CCCCCOc1c(OC)ccc2cc(C(=O)NCCc3ccc(O)cc3)c(O)nc12"
subject_of_test = "Cannabinoid receptor 1 (Rattus norvegicus) (UniProt P20272)"
reported_measurement = "92%"

[[record]]
compound = "CCCCCOc1c(OC)ccc2cc(C(=O)NCc3ccc(O)c(O)c3)c(O)nc12"
subject_of_test = "Cannabinoid receptor 1 (Rattus norvegicus) (UniProt P20272)"
reported_measurement = "93%"

[[record]]
compound = "CCCCCOc1c(OC)ccc2cc(NC(=O)Cc3ccc4c(c3)OCO4)c(O)nc12"
subject_of_test = "Cannabinoid receptor 1 (Rattus norvegicus) (UniProt P20272)"
reported_measurement = "93%"

[[record]]
compound = "CCCCCOc1c(OC)ccc2cc(C(=O)NCCc3ccccc3)c(=O)[nH]c12"
subject_of_test = "Cannabinoid receptor 1 (Rattus norvegicus) (UniProt P20272)"
reported_measurement = "87%"

[[record]]
compound = "CCCCCOc1c(OC)ccc2cc(C(=O)NCCCc3ccccc3)c(=O)[nH]c12"
subject_of_test = "Cannabinoid receptor 1 (Rattus norvegicus) (UniProt P20272)"
reported_measurement = "98%"

[[record]]
compound = "CCCCCOc1c(OC)ccc2cc(C(=O)NCCc3c[nH]c4ccccc34)c(O)nc12"
subject_of_test = "Cannabinoid receptor 1 (Rattus norvegicus) (UniProt P20272)"
reported_measurement = "94%"

[[record]]
compound = "CCCCCOc1c(OC)ccc2cc(C(=O)NCCc3ccc(N)cc3)c(O)nc12"
subject_of_test = "Cannabinoid receptor 1 (Rattus norvegicus) (UniProt P20272)"
reported_measurement = "91%"

